Field: hERG Assay (Compound at 3 μM) % Inhibition (Assay 4). Provide a value for each of the molecules that follow.
subject of test: hERG (human ether-à-go-go-related gene) potassium ion channel (Homo sapiens (Human), UniProt Q12809)
Sequence (Q12809 whole entry): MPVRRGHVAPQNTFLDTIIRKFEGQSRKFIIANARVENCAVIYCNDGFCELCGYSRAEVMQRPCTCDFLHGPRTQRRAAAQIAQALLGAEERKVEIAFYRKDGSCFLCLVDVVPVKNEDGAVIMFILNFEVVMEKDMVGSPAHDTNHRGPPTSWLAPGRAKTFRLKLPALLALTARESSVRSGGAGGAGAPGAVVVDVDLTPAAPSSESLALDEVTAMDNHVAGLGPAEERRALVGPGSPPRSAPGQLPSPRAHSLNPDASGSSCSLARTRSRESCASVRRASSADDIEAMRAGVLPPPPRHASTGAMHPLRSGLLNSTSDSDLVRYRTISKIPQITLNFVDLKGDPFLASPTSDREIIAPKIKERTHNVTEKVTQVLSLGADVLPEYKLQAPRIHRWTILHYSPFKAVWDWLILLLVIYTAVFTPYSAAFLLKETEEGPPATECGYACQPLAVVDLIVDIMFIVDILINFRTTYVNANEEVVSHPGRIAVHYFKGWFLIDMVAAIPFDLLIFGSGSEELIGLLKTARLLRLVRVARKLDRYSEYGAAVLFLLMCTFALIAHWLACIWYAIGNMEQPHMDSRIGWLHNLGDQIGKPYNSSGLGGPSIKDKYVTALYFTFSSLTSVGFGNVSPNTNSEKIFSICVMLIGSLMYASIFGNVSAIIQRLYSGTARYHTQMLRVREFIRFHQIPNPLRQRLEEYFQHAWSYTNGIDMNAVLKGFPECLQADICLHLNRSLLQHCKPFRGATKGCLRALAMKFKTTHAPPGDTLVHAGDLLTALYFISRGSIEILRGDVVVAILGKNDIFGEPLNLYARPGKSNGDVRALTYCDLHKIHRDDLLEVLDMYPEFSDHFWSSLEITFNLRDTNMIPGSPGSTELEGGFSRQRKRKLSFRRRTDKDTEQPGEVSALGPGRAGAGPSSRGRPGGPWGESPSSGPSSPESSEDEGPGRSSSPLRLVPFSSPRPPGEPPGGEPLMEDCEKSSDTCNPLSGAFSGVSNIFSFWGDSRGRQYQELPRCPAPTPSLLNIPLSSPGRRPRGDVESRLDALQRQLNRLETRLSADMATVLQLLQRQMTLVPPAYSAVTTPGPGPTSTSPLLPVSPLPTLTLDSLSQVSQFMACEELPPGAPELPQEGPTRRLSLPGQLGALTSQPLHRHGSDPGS
measurement notes: hERG Assay (Assay 4)
Assay type: cell-based
study conditions: patch clamp, HEK 293 cells
Answers are plain numbers, in %.

# molecule, assay value
records = [
    ("CCS(=O)(=O)c1ccc([C@H](COC)NC(=O)c2cnc3c(c2)CN(C[C@H]2CC[C@H](C(F)(F)F)CC2)[C@H]3C(C)C)cc1 [Compound 15]", 50),
    ("CC[C@H]1c2ncc(C(=O)N[C@@H](COC)c3ccc(S(=O)(=O)CC)cc3)cc2CN1C[C@H]1CC[C@H](C(F)(F)F)CC1 [Compound 1]", 24.3),
    ("CCS(=O)(=O)c1ccc([C@@H](COC(N)=O)NC(=O)c2cnc3c(c2)CN(C[C@H]2CC[C@H](C(F)(F)F)CC2)[C@H]3C(C)C)cc1 [Compound 12]", 38.8),
    ("CC[C@H]1c2ncc(C(=O)N[C@@H](COC(N)=O)c3ccc(S(=O)(=O)CC)cc3)cc2CN1C[C@H]1CC[C@H](C(F)(F)F)CC1 [Compound 2]", 38.8),
]

We now examine a further molecule.
Given CC[C@H]1c2ncc(C(=O)N[C@@H](COC)c3ccc(S(=O)(=O)CC)cc3)cc2CN1C[C@H]1CC[C@H](C(F)(F)F)OC1 (single isomer, unassigned) [Compound 3] , state its recorded hERG Assay (Compound at 3 μM) % Inhibition (Assay 4).
24.3

---

Tested on: IL-17A production
measurement notes: Human Whole Blood Assay (Assay 3)
Assay type: cell-based
study conditions: IL-17A secretion, CytoStim, 48 h, 50% blood/media
Record form. Attribute: IC50. Fill in for each entry.

Below are 4 compounds. Give each one its IC50.
1. CC[C@H]1c2ncc(C(=O)N[C@@H](COC)c3ccc(S(=O)(=O)CC)cc3)cc2CN1C[C@@H]1CC[C@@H](C(F)(F)F)OC1 (single isomer, unassigned)
2. CCS(=O)(=O)c1ccc([C@H](COC)NC(=O)c2cnc3c(c2)CN(C[C@H]2CC[C@H](C(F)(F)F)CC2)[C@H]3C(C)C)cc1
3. CCS(=O)(=O)c1ccc([C@@H](COC(N)=O)NC(=O)c2cnc3c(c2)CN(C[C@H]2CC[C@H](C(F)(F)F)CC2)[C@H]3C(C)C)cc1
4. CC[C@H]1c2ncc(C(=O)N[C@@H](COC)c3ccc(S(=O)(=O)CC)cc3)cc2CN1C[C@H]1CC[C@H](C(F)(F)F)OC1 (single isomer, unassigned)

< 100 nM
< 100 nM
100 to 200 nM
< 100 nM
